Cited source: ChEMBL document CHEMBL1201862

target: DNA repair protein RAD52 homolog (Homo sapiens, UniProt P43351); format: functional, biochemical
Sequence (P43351 whole entry): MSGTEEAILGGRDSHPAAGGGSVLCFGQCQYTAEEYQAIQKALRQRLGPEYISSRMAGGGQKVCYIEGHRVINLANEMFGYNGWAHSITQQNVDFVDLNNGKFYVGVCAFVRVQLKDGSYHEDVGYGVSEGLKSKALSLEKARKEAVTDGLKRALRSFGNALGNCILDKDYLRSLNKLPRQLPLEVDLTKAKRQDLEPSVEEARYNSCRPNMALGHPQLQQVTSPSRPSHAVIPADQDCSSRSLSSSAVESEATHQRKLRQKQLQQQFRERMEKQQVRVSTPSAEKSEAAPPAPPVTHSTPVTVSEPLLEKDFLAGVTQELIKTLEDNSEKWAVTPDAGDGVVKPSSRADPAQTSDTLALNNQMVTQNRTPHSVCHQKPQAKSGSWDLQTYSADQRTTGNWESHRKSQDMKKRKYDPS
Calls of active or inactive are those of the source.

{"molecule": "CC(CC(=O)c1ccc(F)cc1)N1CCN(c2ccccc2)CC1 (stereo unspecified)", "AC50": "34.3 µM (active)"}
{"molecule": "C1CCCCCC(NCCN2CCNCC2)CCCCC1", "AC50": "23.1 µM (active)"}
{"molecule": "COc1cccc2sc3cc(NCCCN4CCOCC4)ccc3c(=O)c12", "AC50": "5.68 µM (active)"}
{"molecule": "CCCCCCCCCCCCCCCC(O)C[N+](C)(C)CCO (stereo unspecified)", "AC50": "< 30.4 µM (active)"}
{"molecule": "NCCCC[C@@H]1NC(=O)c2cc([N+](=O)[O-])cc(F)c2NCCCC[C@@H](C(N)=O)NC(=O)[C@H](CCC(N)=O)NC1=O", "AC50": "8.88 µM (active)"}
{"molecule": "C[N+]1(CC(=O)NNc2c3ccccc3nc3ccccc23)CCOCC1", "AC50": "2.83 µM (active)"}
